Assay: in vivo
Conditions: male, NMRI, mouse, in vivo, iv, 1 mg/kg
Outcome Measure: half-life (min)
Express it in min; write the number only.

Quick check: half-life of COc1ccc(C(CN(C)C)C2(O)CCCCC2)cc1 (racemic) [Venlafaxine, reference compound] ? 48

====

Experiment: Plasma and brain concentrations and plasma pharmacokinetics after i.v. or p.o. administration to mice (LC-MS/MS)
Conditions: male, NMRI, mouse, plasma, iv, 1 mg/kg
Outcome Measure: Tmax
I'd appreciate it if you included the unit after the number.

What value of Tmax has been recorded for this entry: COc1ccc(C(CN(C)C)C2(O)CCCCC2)cc1 (racemic) [Venlafaxine, reference compound] 0 h
